Data origin: patent US20130273029A1

- target desc: Human HER3, endogenous, on human cancer cell lines (SK-Br-3, MCF7, BT-474) (human, UniProt P21860 20-1342)
- Sequence (P21860 20-1342): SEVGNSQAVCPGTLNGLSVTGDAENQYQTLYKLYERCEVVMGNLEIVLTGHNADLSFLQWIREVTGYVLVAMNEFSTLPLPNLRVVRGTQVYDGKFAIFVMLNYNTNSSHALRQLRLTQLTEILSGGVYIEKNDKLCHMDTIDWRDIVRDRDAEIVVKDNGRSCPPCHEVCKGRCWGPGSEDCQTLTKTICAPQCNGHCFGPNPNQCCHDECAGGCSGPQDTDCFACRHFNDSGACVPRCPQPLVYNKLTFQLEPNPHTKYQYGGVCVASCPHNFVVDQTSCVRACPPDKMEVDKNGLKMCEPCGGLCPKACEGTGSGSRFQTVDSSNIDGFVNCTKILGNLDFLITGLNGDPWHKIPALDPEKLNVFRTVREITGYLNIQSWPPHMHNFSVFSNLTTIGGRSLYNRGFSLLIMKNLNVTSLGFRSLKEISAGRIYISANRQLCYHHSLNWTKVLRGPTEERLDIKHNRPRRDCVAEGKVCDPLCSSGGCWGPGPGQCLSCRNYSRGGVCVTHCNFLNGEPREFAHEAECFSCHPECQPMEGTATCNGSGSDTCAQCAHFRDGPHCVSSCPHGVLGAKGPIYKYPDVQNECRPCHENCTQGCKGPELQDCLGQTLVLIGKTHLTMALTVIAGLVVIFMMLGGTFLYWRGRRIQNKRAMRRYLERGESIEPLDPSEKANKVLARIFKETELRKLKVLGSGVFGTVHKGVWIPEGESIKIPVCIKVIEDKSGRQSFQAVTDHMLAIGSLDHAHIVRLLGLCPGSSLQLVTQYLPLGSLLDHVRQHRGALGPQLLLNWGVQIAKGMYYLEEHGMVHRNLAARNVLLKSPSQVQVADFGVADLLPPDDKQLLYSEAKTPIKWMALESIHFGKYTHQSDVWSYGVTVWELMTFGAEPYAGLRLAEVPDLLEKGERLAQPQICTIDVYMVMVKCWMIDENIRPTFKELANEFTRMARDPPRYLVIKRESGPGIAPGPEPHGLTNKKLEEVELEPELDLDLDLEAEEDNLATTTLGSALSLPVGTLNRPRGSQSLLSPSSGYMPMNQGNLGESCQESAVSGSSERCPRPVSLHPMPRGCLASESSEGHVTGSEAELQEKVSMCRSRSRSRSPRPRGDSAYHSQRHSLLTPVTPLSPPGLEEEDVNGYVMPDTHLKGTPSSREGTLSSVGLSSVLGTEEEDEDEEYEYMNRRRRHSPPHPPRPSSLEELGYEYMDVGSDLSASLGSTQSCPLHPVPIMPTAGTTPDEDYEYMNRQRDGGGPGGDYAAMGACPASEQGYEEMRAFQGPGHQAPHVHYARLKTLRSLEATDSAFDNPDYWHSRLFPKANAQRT
- experiment notes: cell-based or functional assay
Examples of binders with documented BT474 pHER3 % inhibition follow.
Hi! Could you send only the number? It should be in %, unit omitted.

MOR12509 (antibody, human IgG1, kappa, V domains shown, tested as IgG) VH: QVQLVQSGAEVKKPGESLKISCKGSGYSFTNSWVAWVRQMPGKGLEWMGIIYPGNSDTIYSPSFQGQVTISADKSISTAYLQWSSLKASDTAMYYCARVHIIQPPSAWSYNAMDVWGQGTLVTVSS VL: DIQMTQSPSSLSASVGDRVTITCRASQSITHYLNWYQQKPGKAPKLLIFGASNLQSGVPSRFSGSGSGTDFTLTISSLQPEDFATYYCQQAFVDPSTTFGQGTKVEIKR :: 84
MOR13867 (antibody, human IgG1, kappa, V domains shown, tested as IgG) VH: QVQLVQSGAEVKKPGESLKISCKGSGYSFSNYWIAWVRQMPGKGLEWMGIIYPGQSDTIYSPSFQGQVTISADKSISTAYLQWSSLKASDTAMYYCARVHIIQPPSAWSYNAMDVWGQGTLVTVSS VL: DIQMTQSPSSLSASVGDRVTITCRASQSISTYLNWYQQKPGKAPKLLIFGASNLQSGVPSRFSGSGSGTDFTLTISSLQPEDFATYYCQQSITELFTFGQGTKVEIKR :: 71

Note: attention shifts to another entry.
// recorded BT474 pHER3 % inhibition for MOR12616 (antibody, human IgG1, kappa, V domains shown, tested as IgG) VH: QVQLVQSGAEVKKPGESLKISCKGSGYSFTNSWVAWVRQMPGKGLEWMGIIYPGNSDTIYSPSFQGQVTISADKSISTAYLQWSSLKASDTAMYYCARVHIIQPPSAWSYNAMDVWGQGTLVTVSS VL: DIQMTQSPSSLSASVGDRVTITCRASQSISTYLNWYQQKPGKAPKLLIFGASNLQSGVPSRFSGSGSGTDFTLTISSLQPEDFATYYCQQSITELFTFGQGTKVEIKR : 58
